Method notes: Half-life in Sprague-Dawley rat at 10 mg/kg, po by LC/MS/MS analysis
Type: ADME, organism-based
Applied conditions: in vivo
Quantity: half-life

Cpd smiles: COc1cc(/C=N/NC(N)=S)c(Br)c(Br)c1OC
Quantity: half-life
Reported value: 2.6 h

====

Method notes: MRT in Sprague-Dawley rat at 2 mg/kg, iv by LC/MS/MS analysis
Format: ADME, organism-based
Applied conditions: in vivo
Quantity: MRT (h)

Cpd smiles: COc1cc(/C=N/NC(N)=S)c(Br)c(Br)c1OC
Endpoint unit: h
Reported value: 1.14

====

Method notes: Acute toxicity in SPF Kunming mouse assessed as lethal dose administered orally as single dose and measured upto 14 days post drug administration
Applied conditions: in vivo, po, time <=14 day

Cpd smiles: COc1cc(/C=N/NC(N)=S)c(Br)c(Br)c1OC
Endpoint unit: mg/kg
LD50 at 336 h: 1000
